Molecular target: human Kv1.3 ion channel (Homo sapiens)
Construct: Human Jurkat cells (which endogenously express hKv1.3) were used in place of rat L929 cells; endogenous in cells
Test: Inhibition of Kv1.3 currents, planar patch clamp in Jurkat cells
Details: Human Jurkat cells (endogenous hKv1.3), averaged dose response data from 3 or more cells
assay-endpoint: log10 EC50 (log10 of the value in nM)

compound	experimental-value
COc1c(C(C)=O)c(OCCCCOc2ccccc2)c(OC)c2occc12 [Example 2]	2.62
CC(=O)c1c(O)c(OCCCc2ccc(F)cc2)c2occc2c1C [Example 47a]	2.73
COc1c2occc2c(C)c2c(=O)cc(C)oc12 [4 a)]	2.90
CC(=O)c1c(OCCc2ccccn2)c(OCCC(C)c2ccc(F)cc2)c2occc2c1C (stereo not drawn) [Example 44d]	1.34
CC(=O)c1c(OCCN2CCOCC2)c(OCCC(C)c2ccccc2)c2occc2c1C (stereo not drawn) [Example 50b]	1.20
COc1c(C(C)=O)c(O)c(OCCNc2ccccc2)c2occc12 [Example 64c]	2.53
CC(=O)c1c(O)c(OCCC(C)c2ccccc2)c2occc2c1C (stereo not drawn) [Example 50a]	2.63
CC(=O)c1c(OCCCCN2CCOCC2)c(OCCCc2ccccc2)c2occc2c1C [28 b)]	2.81
CC(=O)c1c(O)c(OCCOc2ccc(F)cc2)c2occc2c1C [Example 43c]	2.98

###

Biological target: human Kv1.3 ion channel (Homo sapiens)
Construct: Human Jurkat cells (which endogenously express hKv1.3) were used in place of rat L929 cells; endogenous in cells
Assay: Inhibition of Kv1.3 currents, planar patch clamp in Jurkat cells
Conditions: Human Jurkat cells (endogenous hKv1.3), averaged dose response data from 3 or more cells

record-smiles	EC50
CC(=O)c1c(OCCN2CCCC2)c(OCCCc2ccccc2)c2occc2c1C	223 nM
CC(=O)c1c(OCCn2nccn2)c(OCCCc2ccccc2)c2occc2c1C	100 nM
CC(=O)c1c(OCCN(C)C)c(OCCCc2ccccc2)c2occc2c1C	420 nM
CC(=O)c1c(OCCn2nnc(N)n2)c(OCCCc2ccccc2)c2occc2c1C	23 nM
COc1c(C(C)=O)c(OCCCc2ccccc2)c(CN(C)C)c2occc12	480 nM

###

Target: human Kv1.3 ion channel (Homo sapiens, UniProt P22001)
Construct: Human Jurkat cells (which endogenously express hKv1.3) were used in place of rat L929 cells; endogenous in cells
Sequence (P22001 whole entry): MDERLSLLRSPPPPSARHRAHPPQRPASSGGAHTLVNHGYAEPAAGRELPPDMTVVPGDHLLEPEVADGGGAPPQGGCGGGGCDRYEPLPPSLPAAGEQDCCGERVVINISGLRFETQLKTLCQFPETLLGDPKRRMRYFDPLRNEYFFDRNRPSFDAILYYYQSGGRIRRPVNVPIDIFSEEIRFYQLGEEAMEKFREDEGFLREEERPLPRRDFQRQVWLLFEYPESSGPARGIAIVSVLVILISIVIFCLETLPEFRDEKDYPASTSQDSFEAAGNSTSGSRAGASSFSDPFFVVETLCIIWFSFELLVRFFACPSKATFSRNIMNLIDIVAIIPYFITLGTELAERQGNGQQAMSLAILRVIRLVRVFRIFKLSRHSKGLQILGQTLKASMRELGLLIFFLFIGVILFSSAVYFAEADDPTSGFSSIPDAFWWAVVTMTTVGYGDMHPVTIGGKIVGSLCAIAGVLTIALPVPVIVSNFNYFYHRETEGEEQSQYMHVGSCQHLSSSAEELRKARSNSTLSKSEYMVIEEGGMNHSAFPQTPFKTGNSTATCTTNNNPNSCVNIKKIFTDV
Experiment: Inhibition of Kv1.3 currents, planar patch clamp in Jurkat cells
Details: Human Jurkat cells (endogenous hKv1.3), averaged dose response data from 3 or more cells
pEC50: −log10 of the molar value.
Overview of recorded pEC50 for various compounds
assay-endpoint: pEC50

compound	assayed-system	experimental-value
CC(=O)c1c(OCCNC2CCCC2)c(OCCCc2ccc(F)cc2)c2occc2c1C	human Kv1.3 ion channel (Homo sapiens, UniProt P22001)	7.33
CC(=O)c1c(O)c(OC[C@H]2C[C@@H]2c2ccccc2)c2occc2c1C (racemic) [Example 58b]	human Kv1.3 ion channel (Homo sapiens, UniProt P22001)	6.29
CC(=O)c1c(OCCNC2CCCC2)c(OCCC(C)c2ccc(F)cc2)c2occc2c1C (centres unmarked) [Example 45b]	human Kv1.3 ion channel (Homo sapiens, UniProt P22001)	7.37
COc1c(C(C)=O)c(OCCCc2ccccc2)c(OC)c2occc12	human Kv1.3 ion channel (Homo sapiens, UniProt P22001)	6.54
CC(=O)c1c(OCCN2CCOCC2)c(OCC#Cc2ccccc2)c2occc2c1C [Example 60c]	human Kv1.3 ion channel (Homo sapiens, UniProt P22001)	6.48
CC(=O)c1c(OCCN2CCOCC2)c(OCCCc2ccccc2)c2oc(Cl)cc2c1C	human Kv1.3 ion channel (Homo sapiens, UniProt P22001)	6.67
CC(=O)c1c(OCCN2CCOCC2)c(OC(C)CCc2ccccc2)c2occc2c1C (centres unmarked) [Example 57b]	human Kv1.3 ion channel (Homo sapiens, UniProt P22001)	6.80
CC(=O)c1c(OCCN2CCOCC2)c(OC[C@H]2O[C@@H]2c2ccccc2)c2occc2c1C	human Kv1.3 ion channel (Homo sapiens, UniProt P22001)	6.22
